- measurementTarget: Mitogen-activated protein kinase 13 (Homo sapiens) (UniProt O15264)
- Sequence (O15264 whole entry): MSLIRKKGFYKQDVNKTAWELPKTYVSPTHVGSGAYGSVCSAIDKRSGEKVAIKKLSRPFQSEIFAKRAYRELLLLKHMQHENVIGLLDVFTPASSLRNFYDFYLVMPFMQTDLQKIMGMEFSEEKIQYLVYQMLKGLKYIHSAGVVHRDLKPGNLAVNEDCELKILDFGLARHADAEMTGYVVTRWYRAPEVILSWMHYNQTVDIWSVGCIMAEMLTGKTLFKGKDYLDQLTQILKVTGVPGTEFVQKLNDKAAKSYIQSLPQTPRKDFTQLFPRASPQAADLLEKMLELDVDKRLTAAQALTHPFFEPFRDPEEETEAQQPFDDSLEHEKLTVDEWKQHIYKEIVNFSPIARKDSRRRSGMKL
- recordedConditions: at 1 µM
Item-by-item account of residual activity
Give just the numeric value; % need not be written.

Example entries and their recorded answers appear below.
- smilesInput: "N#CC(C#N)=C(N)/C(C#N)=C/c1ccc(O)cc1"
  measurementTarget: "Mitogen-activated protein kinase 13 (Homo sapiens) (UniProt O15264)"
  residual activity (%): 118
- smilesInput: "COc1cccc(-c2cc(=O)c3ccccc3o2)c1N"
  measurementTarget: "Mitogen-activated protein kinase 13 (Homo sapiens) (UniProt O15264)"
  residual activity (%): 99
- smilesInput: "N#C/C(=C(\\N)Sc1ccc(N)cc1)c1ccccc1C(F)(F)F"
  measurementTarget: "Mitogen-activated protein kinase 13 (Homo sapiens) (UniProt O15264)"
  residual activity (%): 95

## Input // lookup residual activity for Cn1nc2c3c(cccc31)C(=O)c1ccccc1-2
## Output 94

## Input // lookup residual activity for O=C(O)c1ccc2c3c1cccc3c(=O)n1c3ccccc3nc21
## Output 119

## Input // lookup residual activity for O=C1NC(=O)/C(=C/c2ccc3c(c2)OC(F)(F)O3)S1
## Output 106

## Input // lookup residual activity for CCN(CC)C(=O)c1ccc(Nc2nc(OCC3CCCCC3)c3nc[nH]c3n2)cc1
## Output 99

## Input // lookup residual activity for CC[n+]1c(/C=C/N(C)c2ccccc2)n(-c2ccccc2)c2ccc(-c3nc4ccccc4s3)cc21
## Output 105

## Input // lookup residual activity for Cc1cncc2cccc(S(=O)(=O)N3CCCN(C(=O)CN)C[C@H]3C)c12
## Output 97

## Input // lookup residual activity for COc1ccc(CNc2nc(N(CCO)CCO)nc3c2ncn3C(C)C)cc1
## Output 100

## Input // lookup residual activity for CCN(CC)CCCCN1c2ccccc2Oc2ccc(Cl)cc21
## Output 111
